# test details: qHTS for differential inhibitors of proliferation of Plasmodium falciparum line D10 (AID 1877);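 note: parasites grown with compound for 72 h before DNA staining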
# run parameters: series mostly up to 28.7 µM
Results filed as inconclusive are left out. Activity calls are given as the source filed them. Calls come from the whole dose curve; as a rule, active = well fitted curve in the direction sought with a large enough effect; inconclusive = small, poorly fitted or top-dose-only effect, or another doubt; inactive = no such curve, though single readings can be large or run the other way.
Labels: 1 (active), -1 (inactive)

[
  {
    "compound": "C/C=C1\\C(=O)CC2C3CCC4=CC(=O)CC[C@]4(C)C3CC[C@]12C (stereo partly specified)",
    "group": 1
  },
  {
    "compound": "O=C(OCCN1CCCCC1)c1c[nH]c2ccccc12",
    "group": -1
  },
  {
    "compound": "COc1ccccc1NC(=O)Nc1nc(-c2cccnc2)nc2ccccc12",
    "group": -1
  },
  {
    "compound": "O=C(O)c1cc(=O)c2ccc(Cl)cc2[nH]1",
    "group": -1
  },
  {
    "compound": "NCCNS(=O)(=O)c1cccc2cnccc12",
    "group": -1
  },
  {
    "compound": "NC(CCC(=O)NCS(=O)(=O)O)C(=O)O (stereo unspecified)",
    "group": -1
  }
]
